Numbers sourced from patent EP1568770A2.

- system-under-test: rat trace amine receptor (Rattus norvegicus)
- Construct: HEK293 cells stably transfected with the pcDNA3.1/V5/His-TOPO expression vector containing the full-length rat cDNA clone described above; expressed in transfected cells
- method: cell-based
- Format: cell-based
endpoint-label: activation of the trace amine receptor / cAMP production, in words

Example results:
CN1CC[C@]23c4c5ccc(O)c4O[C@H]2[C@@H](O)C=C[C@H]3[C@H]1C5 [morphine] = not activated
NCCc1c[nH]cn1 [histamine] = not activated
NCCCC(=O)O [GABA] = not activated
CNCC(O)c1ccc(O)c(OC)c1 (centres unmarked) [metanephrine] = efficacious activators
C[C@@H](CO)NC(=O)[C@@H]1C=C2c3cccc4[nH]cc(c34)C[C@H]2N(C)C1 [Ergotmetrine, ergometrine] = potently activate

Provide activation of the trace amine receptor / cAMP production, in words for all items below, preserving their order.
1. COc1cc(CCN)ccc1O [3-methoxytyramine]
2. COc1cc(C(O)CN)ccc1O (stereo not drawn) [normetanephrine, 3-methoxy-β-4-dihydroxy-β-phenethlamine]
3. CN1CCCC1c1cccnc1 (centres unmarked) [nicotine]
4. CCN(CC)C(=O)[C@@H]1C=C2c3cccc4[nH]cc(c34)C[C@H]2N(C)C1 [D-LSD]
5. CC(C)C[C@H]1C(=O)N2CCC[C@H]2[C@]2(O)O[C@](NC(=O)[C@@H]3C=C4c5cccc6[nH]c(Br)c(c56)C[C@H]4N(C)C3)(C(C)C)C(=O)N12 [Bromocryptine, bromocriptine]

Output line:
["efficacious activators", "efficacious activators", "not activated", "potently activate", "potently activate"]

====

- system-under-test: rat trace amine receptor (Rattus norvegicus, UniProt Q923Y9)
- Construct: HEK293 cells stably transfected with the pcDNA3.1/V5/His-TOPO expression vector containing the full-length rat cDNA clone described above; expressed in transfected cells
- Sequence (Q923Y9 whole entry): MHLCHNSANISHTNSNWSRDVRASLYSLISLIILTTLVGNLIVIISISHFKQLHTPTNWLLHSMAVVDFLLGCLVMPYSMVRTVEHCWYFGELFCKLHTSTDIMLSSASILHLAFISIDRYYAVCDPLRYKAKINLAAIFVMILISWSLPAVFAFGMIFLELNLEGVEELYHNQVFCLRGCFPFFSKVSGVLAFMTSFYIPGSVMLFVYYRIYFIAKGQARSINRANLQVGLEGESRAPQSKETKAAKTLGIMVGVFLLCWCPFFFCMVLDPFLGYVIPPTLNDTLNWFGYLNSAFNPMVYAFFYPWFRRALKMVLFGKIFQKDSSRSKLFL
- method: cell-based
- Assay type: cell-based
- condition-description: Table III; cAMP, 1 hour at 37°C, 100 µM IBMX; read-out: EC50 (nM±SEM)
Answer each item with its documented EC50.
Numbers only, in nM.

Example results:
CNC(C)Cc1ccc2c(c1)OCO2 (racemic) [MDMA] = 1750
CC(N)Cc1ccc(O)cc1 (stereo not drawn) [4-hydroxyamphetamine, α-methyl-p-tyramine] = 51

Kindly review the next compound as well.
Input line: # returns recorded EC50 (system: rat trace amine receptor (Rattus norvegicus, UniProt Q923Y9)) for NCCc1c[nH]c2ccccc12 [Tryptamine]
Output line: 309

====

- system-under-test: rat trace amine receptor (Rattus norvegicus, UniProt Q923Y9)
- Construct: HEK293 cells stably transfected with the pcDNA3.1/V5/His-TOPO expression vector containing the full-length rat cDNA clone described above; expressed in transfected cells
- method: cell-based
- Assay type: cell-based
- condition-description: HEK293; Table III; percent of stimulation by p-tyramine; read-out: Maximal Stimulation (%±SEM)
endpoint-label: Emax (%)
Answers are plain numbers, in %.

Example results:
CNC(C)Cc1ccc2c(c1)OCO2 (racemic) = 65
NCC(O)c1ccc(O)cc1 (stereo not drawn) = 102
NCCc1c[nH]c2ccccc12 = 90

Provide Emax for all items below, preserving their order.
1. NCCc1ccccc1
2. CN1CC=C(c2ccccc2)CC1
3. CNCC(O)c1ccc(O)cc1 (stereo not drawn) [Synephrine]
4. NCCc1cccc(O)c1
5. NCCc1c[nH]c2ccc(O)cc12 [Serotonin, 5-hydroxytryptamine]
6. CC(N)Cc1ccc(O)cc1 (stereo not drawn) [4-hydroxyamphetamine, α-methyl-p-tyramine]

Output line:
[76, 93, 90, 74, 47, 79]
